- measured_target: human NTCP (Homo sapiens)
- Sequence (Q14973 whole entry): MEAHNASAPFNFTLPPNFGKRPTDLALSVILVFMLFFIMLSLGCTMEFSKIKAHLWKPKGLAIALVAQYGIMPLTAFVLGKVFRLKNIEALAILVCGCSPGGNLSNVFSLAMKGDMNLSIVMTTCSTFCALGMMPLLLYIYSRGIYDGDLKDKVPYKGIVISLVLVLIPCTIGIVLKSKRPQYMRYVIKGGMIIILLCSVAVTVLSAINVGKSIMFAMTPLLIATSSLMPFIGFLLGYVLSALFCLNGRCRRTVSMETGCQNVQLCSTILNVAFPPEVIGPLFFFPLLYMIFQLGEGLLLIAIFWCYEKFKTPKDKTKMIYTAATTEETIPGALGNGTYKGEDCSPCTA
- experiment_notes: Screening taurocholate uptake assay (96-well, [14C]taurocholate, 10 µM drug)
- applied_conditions: combined ranking from functional and binding screening assays
Where a name gives a salt, the structure may show the parent alone.
Parameter Ranking score: see the listing below.
Answer using only a numeral; do not append any unit.

# count of solved cases: 8
INSERT INTO assay_data (compound, experimental_endpoint, reported_result) VALUES
  ('C[C@]12CCC(=O)C=C1C=C[C@@H]1[C@@H]2CC[C@@]2(C)[C@H]1CC[C@@]21CCC(=O)O1', 'Ranking score', 379.419),
  ('COc1cc(C)c(/C=C/C(C)=C/C=C/C(C)=C/C(=O)O)c(C)c1C', 'Ranking score', 302.82),
  ('CC(C)c1c(CN(C)C(C)Cc2ccccc2)n(C)n(-c2ccccc2)c1=O (centres unmarked)', 'Ranking score', 376.915),
  ('CCCC[N+]1(C)[C@@H]2C[C@@H](OC(=O)[C@H](CO)c3ccccc3)C[C@H]1[C@@H]1O[C@@H]12.[Br-] (some centres unmarked) [Butylscopolammonium (n-) bromide]', 'Ranking score', 409.241),
  ('CC(=O)OCC(=O)NCCCOc1cccc(CN2CCCCC2)c1 [Roxatidine Acetate HCl]', 'Ranking score', 297.686),
  ('CCCCOc1cc(C(=O)OCCN(CC)CC)ccc1N [Benoxinate hydrochloride]', 'Ranking score', 454.623),
  ('S=C(NC1CCCCC1)N1CCC(c2cnc[nH]2)CC1 [Thioperamide maleate]', 'Ranking score', 451.504),
  ('COc1ccc(C(=O)c2ccccc2O)c(O)c1', 'Ranking score', 401.91);

Input line: Fill in the blank: the reported Ranking score of CC(C)C(=O)Nc1ccc([N+](=O)[O-])c(C(F)(F)F)c1 [Flutamide] is ____.
Output line: 383.15
